assay: GD3 clinical study: pharmacokinetics in plasma and CSF; format: in vivo, human; conditions: human, plasma, po, plasma, Day 1 (N = 5); 26-week interim; GD3, 15 mg/day oral + imiglucerase; read-out: AUC0_24 (mean ± SD)
readout label: AUC

1) CC(C)(NC(=O)O[C@@H]1CN2CCC1CC2)c1csc(-c2ccc(F)cc2)n1 [Compound 2] ... 715 ng·h/mL

----------
assay: GD3 clinical study: pharmacokinetics in plasma and CSF; format: in vivo, human; conditions: human, plasma, po, plasma, Day 1 (N = 5); 52-week interim; GD3, 15 mg/day oral + imiglucerase; read-out: AUC0_24 (mean ± SD)
readout label: AUC (ng·h/mL)

1. CC(C)(NC(=O)O[C@@H]1CN2CCC1CC2)c1csc(-c2ccc(F)cc2)n1 ... 729

Ref: patent US20220023273A1
